# measured target: Metabotropic glutamate receptor 8 (Rattus norvegicus) (UniProt P70579)
# Sequence (P70579 whole entry, looked up): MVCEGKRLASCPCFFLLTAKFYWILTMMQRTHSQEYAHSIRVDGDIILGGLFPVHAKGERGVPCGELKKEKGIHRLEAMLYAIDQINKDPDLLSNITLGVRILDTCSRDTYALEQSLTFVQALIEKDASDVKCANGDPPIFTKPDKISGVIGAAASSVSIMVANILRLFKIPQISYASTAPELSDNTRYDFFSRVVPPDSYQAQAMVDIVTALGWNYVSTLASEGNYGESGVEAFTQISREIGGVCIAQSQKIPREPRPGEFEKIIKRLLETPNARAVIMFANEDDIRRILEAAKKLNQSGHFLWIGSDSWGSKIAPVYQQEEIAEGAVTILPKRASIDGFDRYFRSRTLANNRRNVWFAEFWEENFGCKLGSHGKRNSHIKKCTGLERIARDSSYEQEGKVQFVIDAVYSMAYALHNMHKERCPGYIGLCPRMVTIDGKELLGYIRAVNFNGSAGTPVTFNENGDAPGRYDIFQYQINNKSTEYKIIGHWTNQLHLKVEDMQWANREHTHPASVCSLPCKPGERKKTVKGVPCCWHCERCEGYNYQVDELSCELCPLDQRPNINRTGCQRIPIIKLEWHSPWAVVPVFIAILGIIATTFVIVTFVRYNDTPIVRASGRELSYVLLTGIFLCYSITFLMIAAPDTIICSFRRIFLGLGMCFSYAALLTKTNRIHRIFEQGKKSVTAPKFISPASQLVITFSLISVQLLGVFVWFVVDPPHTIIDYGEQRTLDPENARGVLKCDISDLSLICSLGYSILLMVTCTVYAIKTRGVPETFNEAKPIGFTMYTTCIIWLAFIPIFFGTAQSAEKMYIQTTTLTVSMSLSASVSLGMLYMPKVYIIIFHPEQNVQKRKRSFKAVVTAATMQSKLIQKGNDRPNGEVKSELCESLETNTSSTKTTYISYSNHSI
# measurement description: mGluR8 Gi/Go-coupled signaling modulation – cell-based, rat, thallium flux, HTS, primary screen (AID 488969)
# condition context: HEK293 rat mGluR8, GIRK thallium flux, FluoZin2; at 10 µM; stronger effect = higher value; submaximal glutamate (EC20) added with thallium
In all, about 110,000 compounds were measured (“z-score”: median about -0.1, highest 2% from about 2 on). The sample holds the highest values, similar compounds and a random draw of the others, so the mix is not that of the screen.
readout: z-score
Number only, please.

A selection of reference data follows.
smiles code: Cc1cc(C)c(CSc2ncc(-c3ccc([N+](=O)[O-])cc3)[nH]2)c(C)c1
z-score: -0.26
//
smiles code: Cc1cccc(-n2cc(-c3ccc([N+](=O)[O-])cc3)[nH]c2=S)c1
z-score: 0.401
//
smiles code: O=[N+]([O-])c1ccc(-c2cn(-c3ccccc3)c(=S)[nH]2)cc1
z-score: -0.00967
//
smiles code: Cc1ccc(-n2cc(-c3ccc([N+](=O)[O-])cc3)[nH]c2=S)c(C)c1
z-score: 2.99
//
smiles code: COc1cccc2cc(C(=O)n3ccc(C)n3)c(=O)oc12
z-score: -1.33

In: Would you kindly share the measured z-score for CCc1ccc(-n2cc(-c3ccc([N+](=O)[O-])cc3)[nH]c2=S)cc1 ?
Out: 0.69

In: May I ask what z-score has been recorded for Cc1onc(-c2c(F)cccc2Cl)c1C(=O)Nc1cccc2nsnc12 ?
Out: 2.67

In: Find the recorded z-score belonging to CCOc1ccc(/C=C/C(=O)NCCc2ccc(OC)c(OC)c2)cc1 and report it.
Out: -0.114

In: For the compound shown here, CCOC(=O)Nc1nc(C)c(C(=O)N(C)C)s1 , give the reported z-score.
Out: -0.0609

In: Would you kindly share the measured z-score for COC(=O)Nc1nc(C)c(C(=O)N(C)C)s1 ?
Out: 4.58

In: Quick check: z-score of Cc1nc(NC(=O)C2CC2)sc1C(=O)N(C)C ?
Out: -0.405

----------
# measured target: Metabotropic glutamate receptor 8 (Rattus norvegicus) (UniProt P70579)
# measurement description: mGluR8 Gi/Go-coupled signaling modulation – cell-based, rat, thallium flux, HTS, primary screen (AID 488969)
# condition context: HEK293 rat mGluR8, GIRK thallium flux, FluoZin2; at 10 µM; stronger effect = higher value; submaximal glutamate (EC20) added with thallium
The full ranking holds about 110,000 compounds; the median of “z-score” is about -0.1, and the highest 2% start at about 2. Shown is part of a subset that was picked to be rich in the highest values.
readout: z-score
I'd appreciate a reply containing only the number, no unit.

molecule: O=C(Nc1cccc(C(F)(F)F)c1)c1cc(-c2cccs2)on1
measured target: Metabotropic glutamate receptor 8 (Rattus norvegicus) (UniProt P70579)
z-score: -0.52

In: Kindly state the measured z-score obtained for O=C(Nc1nnc(-c2cccs2)o1)c1ccco1 with Metabotropic glutamate receptor 8 (Rattus norvegicus) (UniProt P70579).
Out: -0.203

In: Recorded z-score for O=C(CCc1ccccc1)Nc1nnc(-c2cccs2)o1 with Metabotropic glutamate receptor 8 (Rattus norvegicus) (UniProt P70579), please?
Out: 0.129

In: Recorded z-score for CCC1CCCCN1S(=O)(=O)c1ccc(C(=O)Nc2nnc(-c3cccs3)o2)cc1 (stereo unspecified) with Metabotropic glutamate receptor 8 (Rattus norvegicus) (UniProt P70579), please?
Out: 0.233

In: Under Metabotropic glutamate receptor 8 (Rattus norvegicus) (UniProt P70579): z-score value of O=C(Nc1ccccc1)c1cccc(C(F)(F)F)c1 ?
Out: -0.053

In: Please tell me: z-score of CCCCN(CCCC)S(=O)(=O)c1ccc(C(=O)Nc2nnc(COC)o2)cc1 , system Metabotropic glutamate receptor 8 (Rattus norvegicus) (UniProt P70579)?
Out: 1.03

----------
# measured target: Metabotropic glutamate receptor 8 (Rattus norvegicus)
# measurement description: mGluR8 Gi/Go-coupled signaling modulation – cell-based, rat, thallium flux, HTS, primary screen (AID 488969)
# condition context: HEK293 rat mGluR8, GIRK thallium flux, FluoZin2; at 10 µM; stronger effect = higher value; submaximal glutamate (EC20) added with thallium
Over roughly 110,000 compounds, “z-score” has its median near -0.1; the highest 2% begin near 2. This excerpt belongs to a sample that is enriched for the highest values. Calls of active or inactive are those of the source.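 Rule for the calls: active = z-score in the third read window above 3 or below -3; inactive = the rest.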
readout: z-score

Below are worked cases with known answers.
smiles code: Nc1nc2c(F)cccc2s1
measured target: Metabotropic glutamate receptor 8 (Rattus norvegicus)
result: -0.0918
//
smiles code: COc1cc(OC)cc(-c2nnc(Nc3nc4c(F)cccc4s3)o2)c1
measured target: Metabotropic glutamate receptor 8 (Rattus norvegicus)
result: 9.94 (active)
//
smiles code: CN1CCN(Cc2cc(Cl)c3cccnc3c2OC(=O)c2cccs2)CC1
measured target: Metabotropic glutamate receptor 8 (Rattus norvegicus)
result: 0.273
//
smiles code: O=C(Oc1ccc(Cl)c2cccnc12)c1ccco1
measured target: Metabotropic glutamate receptor 8 (Rattus norvegicus)
result: 0.951
//
smiles code: O=C(Oc1c(Cl)cc(Cl)c2cccnc12)c1cccs1
measured target: Metabotropic glutamate receptor 8 (Rattus norvegicus)
result: 2.7

Now turn to the next molecule.
In: Reported z-score for Cc1cccc(OCCNc2cc(N3CCN(CCO)CC3)ccc2[N+](=O)[O-])c1 : what is it?
Out: -0.0985

----------
# measured target: Metabotropic glutamate receptor 8 (Rattus norvegicus) (UniProt P70579)
# measurement description: mGluR8 Gi/Go-coupled signaling modulation – cell-based, rat, thallium flux, HTS, primary screen (AID 488969)
# condition context: HEK293 rat mGluR8, GIRK thallium flux, FluoZin2; at 10 µM; stronger effect = higher value; submaximal glutamate (EC20) added with thallium
Whole data set: some 110,000 compounds, median “z-score” near -0.1, cut for the highest 2% near 2. The full list was thinned out, with the highest values kept by preference.
Returns one of Y or N; Y when z-score is >= 0.2.

# count of solved cases: 5
smiles code: O=C(NN=C1c2ccccc2-c2ccccc21)c1ccccn1
assigned class: Y
--
smiles code: O=C(NN=C1c2ccccc2-c2ccccc21)c1cccc(Br)c1
assigned class: Y
--
smiles code: O=C(N/N=C/C=C/c1ccccc1)c1ccccc1Br
assigned class: N
--
smiles code: O=C(N/N=C/C=C/c1ccccc1)c1cccc(Br)c1
assigned class: Y
--
smiles code: O=C(COc1cccc(Br)c1)NN=C1c2ccccc2-c2ccccc21
assigned class: N

Then this molecule:
In: Textbook exercise: given the entry CSc1ccn(CCC(=O)O)c(=O)n1 , state whether its z-score is greater than or equal to 0.2.
Out: N

----------
# measured target: Metabotropic glutamate receptor 8 (Rattus norvegicus) (UniProt P70579)
# measurement description: mGluR8 Gi/Go-coupled signaling modulation – cell-based, rat, thallium flux, HTS, primary screen (AID 488969)
# condition context: HEK293 rat mGluR8, GIRK thallium flux, FluoZin2; at 10 µM; stronger effect = higher value; submaximal glutamate (EC20) added with thallium
Whole data set: some 110,000 compounds, median “z-score” near -0.1, cut for the highest 2% near 2. The sample holds the highest values, similar compounds and a random draw of the others, so the mix is not that of the screen.
Catalogue of compounds with associated z-score
Answer with the value's number alone.

Reference set, count: 4
compound: C/C(N)=C(/C#N)C(=O)CSc1nc2ccccc2c(=O)n1-c1ccc(C)c(Cl)c1
measured target: Metabotropic glutamate receptor 8 (Rattus norvegicus) (UniProt P70579)
z-score: -0.275

compound: CCOc1ccc2c(c1)c(N=Nc1cccc(C(=O)O)c1)c(O)n2C
measured target: Metabotropic glutamate receptor 8 (Rattus norvegicus) (UniProt P70579)
z-score: -0.0674

compound: O=C(CCCCCn1c(=S)[nH]c2ccccc2c1=O)N1CCOCC1
measured target: Metabotropic glutamate receptor 8 (Rattus norvegicus) (UniProt P70579)
z-score: -0.155

compound: CCOCCCn1c(SCC(=O)/C(C#N)=C(\C)N)nc2ccccc2c1=O
measured target: Metabotropic glutamate receptor 8 (Rattus norvegicus) (UniProt P70579)
z-score: -0.243

In: Looking for the measured z-score of O=c1c2ccccc2[nH]c(=S)n1CCN1CCN(Cc2ccccc2)CC1 , can you help?
Out: 7.91

In: Entry CCc1ccc2c(c1)c(N=NC1=NC(=O)CS1)c(O)n2C : reported z-score = ?
Out: 2.09

In: Value lookup for z-score; key = CCCCn1c(SCC(=O)/C(C#N)=C(\C)N)nc2ccccc2c1=O
Out: 5.63

----------
# measured target: Metabotropic glutamate receptor 8 (Rattus norvegicus) (UniProt P70579)
# measurement description: mGluR8 Gi/Go-coupled signaling modulation – cell-based, rat, thallium flux, HTS, primary screen (AID 488969)
# condition context: HEK293 rat mGluR8, GIRK (G protein-gated inwardly rectifying potassium channel) thallium flux, FluoZin2; at 10 µM; stronger effect = higher value; submaximal glutamate (EC20) added with thallium
Over roughly 110,000 compounds, “z-score” has its median near -0.1; the highest 2% begin near 2. Only a selection was taken, and the highest values are over-represented in it overall.
Quick reference for z-score among some molecules
Reply briefly: the number, and no unit.

In: z-score for CCSc1nnc(NC(=O)c2cccc3ccccc23)s1 ?
Out: -0.316

In: Field request: z-score | item: CCCC(=O)Nc1c(-c2ccc(OC)cc2)c(=O)c2ccccc2n1C
Out: -0.253

In: Which measured z-score value corresponds to CC(C)(C)c1ccc(C(=O)NCC(=O)OCC(=O)Nc2ccc3c(c2)OCCO3)cc1 ?
Out: 0.131
